System: kinases
Test: Kinase selectivity using Z'-LYTE or Adapta
Format: biochemical
Settings: 1 μM of Example; Z-LYTE platform
quantity-measured: percent inhibition CHEK2 (CHK2) (%)
Use % as the unit, but write only the number.

Observe how each entry below is paired with its result.
CC(C)Oc1ccc2[nH]nc(-c3cc(N4CCN(CCF)CC4)ncn3)c2c1: 13
CC(C)Oc1ccc2[nH]nc(-c3cc(N4CCOCC4)ncn3)c2c1: 7
CC(C)Oc1cc2c(-c3cc(N4CCN(C)CC4)ncn3)n[nH]c2cc1F: 8

Now for another entry.
Task: Hi! What's the reported percent inhibition CHEK2 (CHK2) for CC(C)Oc1ccc2[nH]nc(-c3cc(N4CCO[C@H](C)C4)ncn3)c2c1 [Example D2] on kinases?
Result: 1

###

Molecular target: LRRK2(G2019S mutation, GST-LRRK2(amino acids 970-2527)) (Homo sapiens (Human), UniProt Q5S007, G2019S)
Sequence (Q5S007 970-2527 G2019S): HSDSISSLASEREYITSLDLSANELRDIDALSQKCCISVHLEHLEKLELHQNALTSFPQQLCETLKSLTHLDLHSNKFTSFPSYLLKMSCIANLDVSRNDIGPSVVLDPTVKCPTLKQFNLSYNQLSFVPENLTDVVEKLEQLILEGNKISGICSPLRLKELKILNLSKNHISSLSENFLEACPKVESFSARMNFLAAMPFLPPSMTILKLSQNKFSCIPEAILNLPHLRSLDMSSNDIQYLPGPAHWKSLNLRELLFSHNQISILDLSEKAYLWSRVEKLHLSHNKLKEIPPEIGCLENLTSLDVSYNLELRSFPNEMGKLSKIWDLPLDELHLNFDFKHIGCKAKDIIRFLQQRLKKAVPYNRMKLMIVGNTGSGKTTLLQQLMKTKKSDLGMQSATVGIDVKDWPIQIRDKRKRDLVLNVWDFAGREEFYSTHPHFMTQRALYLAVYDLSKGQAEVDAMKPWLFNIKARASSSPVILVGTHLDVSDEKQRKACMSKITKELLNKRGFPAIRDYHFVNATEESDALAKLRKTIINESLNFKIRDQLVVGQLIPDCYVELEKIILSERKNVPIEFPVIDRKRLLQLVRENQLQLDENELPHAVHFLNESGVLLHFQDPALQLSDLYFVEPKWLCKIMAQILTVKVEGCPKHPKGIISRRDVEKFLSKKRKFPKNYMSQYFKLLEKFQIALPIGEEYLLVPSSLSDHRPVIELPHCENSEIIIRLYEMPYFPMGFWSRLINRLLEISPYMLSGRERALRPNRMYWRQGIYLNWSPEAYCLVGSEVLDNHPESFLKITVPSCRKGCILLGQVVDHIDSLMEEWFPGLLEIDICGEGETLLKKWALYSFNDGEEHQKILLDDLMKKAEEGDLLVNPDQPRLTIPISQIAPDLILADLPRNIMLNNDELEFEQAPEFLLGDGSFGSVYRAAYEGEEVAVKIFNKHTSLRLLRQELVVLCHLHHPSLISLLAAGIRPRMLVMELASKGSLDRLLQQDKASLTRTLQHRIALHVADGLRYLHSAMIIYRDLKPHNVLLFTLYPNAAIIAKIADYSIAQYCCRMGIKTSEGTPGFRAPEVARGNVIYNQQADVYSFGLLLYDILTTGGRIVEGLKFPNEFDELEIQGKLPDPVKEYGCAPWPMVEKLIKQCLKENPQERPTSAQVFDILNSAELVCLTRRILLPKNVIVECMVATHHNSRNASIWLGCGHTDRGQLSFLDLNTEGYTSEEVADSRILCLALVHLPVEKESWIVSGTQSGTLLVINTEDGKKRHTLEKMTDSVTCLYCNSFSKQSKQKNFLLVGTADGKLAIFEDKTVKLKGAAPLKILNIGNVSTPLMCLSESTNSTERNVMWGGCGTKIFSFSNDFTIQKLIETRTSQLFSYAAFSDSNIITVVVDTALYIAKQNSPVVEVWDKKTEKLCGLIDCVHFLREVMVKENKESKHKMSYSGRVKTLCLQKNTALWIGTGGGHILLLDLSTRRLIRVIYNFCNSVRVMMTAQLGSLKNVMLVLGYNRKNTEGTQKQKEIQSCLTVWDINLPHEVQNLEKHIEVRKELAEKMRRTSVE
Assay: LRRK2 Km ATP LanthaScreen Assay
Assay type: biochemical
Settings: Km ATP (184 μM ATP solution), G2019S LRRK2, mean IC50
Procedure: Unless otherwise noted, all LRRK2 IC50 data presented in tables refers to the LRRK2 Km ATP LanthaScreen™ Assay that is described in the Biological Assay section. […] e) Plates are incubated at room temperature for 1 hour and read on an Envision™ multi-mode plate reader with LanthaScreen™ settings. Results are analysed using Assay Data Analyzer.
pIC50: −log10 of the molar value.
Would you mind labelling by pIC50? At or over 8 is 1 (yes), under is 0 (no).

Example results:
CC(C)Oc1ccc2[nH]nc(-c3cc(N4CC(F)(F)C4)ncn3)c2c1: 0 (no)
Cn1cc(-c2ccc3[nH]nc(-c4cc(N5CCOCC5)ncn4)c3c2)cn1: 1 (yes)
Cn1cc(-c2ccc3[nH]nc(-c4cc(N5CCC(F)(C#N)CC5)ncn4)c3c2)cn1: 1 (yes)
COc1ccc2[nH]nc(-c3cc(N4CCO[C@@H](C)C4)ncn3)c2c1: 0 (no)

Task: Is reported pIC50 greater than or equal to 8 here: "Cn1cc(-c2ccc3[nH]nc(-c4cc(N5CCN(CCCO)CC5)ncn4)c3c2)cn1"
Result: 1 (yes)

Task: Is reported pIC50 greater than or equal to 8 here: "CC(C)=Cc1ccc2[nH]nc(-c3cc(N4CCN(S(C)(=O)=O)CC4)ncn3)c2c1"
Result: 0 (no)

Task: Is reported pIC50 greater than or equal to 8 here: "CC(C)Oc1cc2c(-c3cc(N4CCN(C)CC4)ncn3)n[nH]c2cc1F"
Result: 1 (yes)

Task: Is reported pIC50 greater than or equal to 8 here: "CC(C)Oc1cc2c(-c3cc(N4C[C@@H](C)O[C@@H](C)C4)ncn3)n[nH]c2cc1F"
Result: 1 (yes)

###

Here, each record is paired with measured percent inhibition IRAK1 data.
Tested on: kinases
Assay: Kinase selectivity using Z'-LYTE or Adapta
Assay type: biochemical
Settings: 1 μM of Example; Adapta platform
Use % as the unit, but write only the number.

Observe how each entry below is paired with its result.
CC(C)Oc1ccc2[nH]nc(-c3cc(N4CCO[C@H](C)C4)ncn3)c2c1 [Example D2]: −7
CC(C)Oc1ccc2[nH]nc(-c3cc(N4CCOCC4)ncn3)c2c1 [Example D6]: −1
CC(C)Oc1ccc2[nH]nc(-c3cc(N4CCN(CCF)CC4)ncn3)c2c1 [Example D15]: −3

Task: Would you mind telling me what percent inhibition IRAK1 value was observed for CC(C)Oc1cc2c(-c3cc(N4CCN(C)CC4)ncn3)n[nH]c2cc1F [Example D25] ?
Result: 15

###

Target: LRRK2(G2019S mutation, GST-LRRK2(amino acids 970-2527)) (Homo sapiens (Human), UniProt Q5S007, G2019S)
Assay: LRRK2 Km ATP LanthaScreen Assay
Assay type: biochemical
Conditions: Km ATP (184 μM ATP solution), G2019S LRRK2, mean IC50
Description: Unless otherwise noted, all LRRK2 IC50 data presented in tables refers to the LRRK2 Km ATP LanthaScreen™ Assay that is described in the Biological Assay section. […] e) Plates are incubated at room temperature for 1 hour and read on an Envision™ multi-mode plate reader with LanthaScreen™ settings. Results are analysed using Assay Data Analyzer.
Rule for this label: T means IC50 is less than 20 nM; F means IC50 is at least 20 nM.

Task: Say whether its IC50 is strictly beneath 20 nM. Entry: "CCCN1CCN(c2cc(-c3n[nH]c4ccc(OC(C)C)cc34)ncn2)CC1=O"
Result: T

Task: Say whether its IC50 is strictly beneath 20 nM. Entry: "CC(C)Oc1ccc2[nH]nc(-c3cc(N4C[C@H](N)C[C@@H]4C)ncn3)c2c1"
Result: T

Task: Say whether its IC50 is strictly beneath 20 nM. Entry: "Cn1cc(-c2cc3c(-c4cc(N5CCC(F)(CO)CC5)ncn4)n[nH]c3cc2F)cn1"
Result: T

Task: Say whether its IC50 is strictly beneath 20 nM. Entry: "Cn1cc(-c2ccc3[nH]nc(-c4cc(N5CCCC(F)(F)C5)ncn4)c3c2)cn1"
Result: T

Task: Say whether its IC50 is strictly beneath 20 nM. Entry: "COCCOc1ccc2[nH]nc(-c3cc(N4CCN(S(C)(=O)=O)CC4)ncn3)c2c1"
Result: F

Task: Say whether its IC50 is strictly beneath 20 nM. Entry: "CN1CCN(c2cc(-c3n[nH]c4ccc(-c5cnn(C)c5)cc34)ncn2)CC1=O"
Result: T

Task: Say whether its IC50 is strictly beneath 20 nM. Entry: CC(C)Oc1ccc2[nH]nc(-c3cc(N4CCN(C(=O)C5CCCO5)CC4)ncn3)c2c1 (centres unmarked)
Result: F

Task: Say whether its IC50 is strictly beneath 20 nM. Entry: "CC(C)Oc1ccc2[nH]nc(-c3cc(N4CCOC5(CC5)C4)ncn3)c2c1"
Result: T

Task: Say whether its IC50 is strictly beneath 20 nM. Entry: "COc1ccc2[nH]nc(-c3cc(N4CCN(C(C)=O)CC4)ncn3)c2c1"
Result: F

Task: Say whether its IC50 is strictly beneath 20 nM. Entry: "COC[C@H](C)Oc1ccc2[nH]nc(-c3cc(N4CC[C@H](OC)C4)ncn3)c2c1"
Result: T

Task: Say whether its IC50 is strictly beneath 20 nM. Entry: "Cn1cc(-c2cc3c(-c4cc(N5CC[C@H](CO)C5)ncn4)n[nH]c3cc2F)cn1"
Result: F

Task: Say whether its IC50 is strictly beneath 20 nM. Entry: "COCCOC1CCN(c2cc(-c3n[nH]c4cc(F)c(OC(C)C)cc34)ncn2)CC1"
Result: T

Task: Say whether its IC50 is strictly beneath 20 nM. Entry: "COC[C@H](C)Oc1ccc2[nH]nc(-c3cc(N4CCN(S(C)(=O)=O)CC4)ncn3)c2c1"
Result: T

Task: Say whether its IC50 is strictly beneath 20 nM. Entry: "CC(C)Oc1cc2c(-c3cc(N4C[C@H](O)[C@@H](N)[C@@H]4C)ncn3)n[nH]c2cc1F"
Result: T

Task: Say whether its IC50 is strictly beneath 20 nM. Entry: "CCOc1ccc2[nH]nc(-c3cc(N4CCO[C@@H](C)C4)ncn3)c2c1"
Result: F

###

Tested on: kinases
Assay: Kinase selectivity using Z'-LYTE or Adapta
Format: biochemical
Details: 1 μM of Example; Z-LYTE platform
quantity-measured: percent inhibition AURKB (Aurora B) (%)
Use % as the unit, but write only the number.

Observe how each entry below is paired with its result.
CC(C)Oc1cc2c(-c3cc(N4CCN(C)CC4)ncn3)n[nH]c2cc1F: 14
CC(C)Oc1ccc2[nH]nc(-c3cc(N4CCN(CCF)CC4)ncn3)c2c1: 18
CC(C)Oc1ccc2[nH]nc(-c3cc(N4CCO[C@H](C)C4)ncn3)c2c1 [Example D2]: 9

Now for another entry.
Task: Would you mind telling me what percent inhibition AURKB (Aurora B) value was observed for "CC(C)Oc1ccc2[nH]nc(-c3cc(N4CCOCC4)ncn3)c2c1" ?
Result: 16

###

Target: LRRK2(G2019S mutation, GST-LRRK2(amino acids 970-2527)) (Homo sapiens (Human), UniProt Q5S007, G2019S)
Assay: LRRK2 Km ATP LanthaScreen Assay
Format: biochemical
Conditions: Km ATP (184 μM ATP solution), G2019S LRRK2, mean IC50
Method: Unless otherwise noted, all LRRK2 IC50 data presented in tables refers to the LRRK2 Km ATP LanthaScreen™ Assay that is described in the Biological Assay section. […] e) Plates are incubated at room temperature for 1 hour and read on an Envision™ multi-mode plate reader with LanthaScreen™ settings. Results are analysed using Assay Data Analyzer.
quantity-measured: pIC50
A value of pIC50 is the negative decimal logarithm of a concentration given in moles per litre.

COC[C@H](C)Oc1ccc2[nH]nc(-c3cc(N4CCC5(CC4)CNC(=O)C5)ncn3)c2c1 [Example H11]: 8.55
Cn1cc(-c2cc3c(-c4cc(N5C[C@@H](F)[C@H](F)C5)ncn4)n[nH]c3cc2F)cn1 [Example L14]: 7.52
Cn1cc(-c2ccc3[nH]nc(-c4cc(N5CCCC6(CCO6)C5)ncn4)c3c2)cn1 (stereo not shown) [Example M16]: 7.96

Now for another entry.
Task: Would you mind telling me what pIC50 value was observed for CC(C)=Cc1ccc2[nH]nc(-c3cc(N4CCN(C)CC4)ncn3)c2c1 [Example S3] ?
Result: 7.48
